Recorded values, source the supplement of paper PMC10567573.

B1: IQUB (parent)
chain: EADYEDDSKIAFLMQLQDIQYLTE

Variants of: B1
Test: protein stability index of a GFP-peptide fusion (GPS, HEK-293T) (PSI 1-6); higher = more stable;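 also: lentivirally expressed fusions sorted by FACS into six bins by GFP to DsRed ratio, PSI derived from sequencing read proportions per bin multiplied by bin number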
Details: c terminus: a fixed tail appended
As shown below, each of these variants has a reported protein stability index value.
Write the number on its own, no unit after it.

# count of solved cases: 2
Query block: Give me measured protein stability index, please, for this variant: `E5H`
Result block: 2.62

Query block: Give me measured protein stability index, please, for this variant: `I19T`
Result block: 4.15

Further cases:
Query block: Give me measured protein stability index, please, for this variant: `D7T`
Result block: 2.19

Query block: Give me measured protein stability index, please, for this variant: `Q17V`
Result block: 2.67
